Test system: third instar larvae of Spodoptera litura
assay-method-text: whole plant or invertebrate
Type: in vivo
assay-conditions: read-out: Larvicidal Activity (%) at Time (h) 96 h; third instar larvae of S. litura; 96 h; concentration of 14 and 15a 50 ppm
reported-endpoint: mortality (%)
# unit: % | format: bare number

Guide cases for mortality, answers given:
| compound | unit-tag | reported-value |
| --- | --- | --- |
| CNC(=O)c1cc([S+](C)[O-])cc(C)c1NC(=O)c1cc(Br)nn1-c1ncccc1Cl (stereo not shown) [Compound 15b] | % | 0 |
| CNC(=O)c1cc(S(C)(=O)=O)cc(C)c1NC(=O)c1cc(Br)nn1-c1ncccc1Cl [Compound 16b] | % | 0 |
| CNC(=O)c1cc(S(C)(=O)=NC(=O)C(F)(F)F)cc(C)c1NC(=O)c1cc(Br)nn1-c1ncccc1Cl (stereo not shown) [Compound 16a] | % | 0 |

Ask: // output mortality; input CNC(=O)c1cc(SC)cc(C)c1NC(=O)c1cc(Br)nn1-c1ncccc1Cl ; system third instar larvae of Spodoptera litura
Reply: 73.3
